System Name: CYP3A4 (Homo sapiens)
Construct: 0.1 mg/mL human liver microsomes; from tissue; host or cells: human liver microsomes
Sequence (P08684 whole entry): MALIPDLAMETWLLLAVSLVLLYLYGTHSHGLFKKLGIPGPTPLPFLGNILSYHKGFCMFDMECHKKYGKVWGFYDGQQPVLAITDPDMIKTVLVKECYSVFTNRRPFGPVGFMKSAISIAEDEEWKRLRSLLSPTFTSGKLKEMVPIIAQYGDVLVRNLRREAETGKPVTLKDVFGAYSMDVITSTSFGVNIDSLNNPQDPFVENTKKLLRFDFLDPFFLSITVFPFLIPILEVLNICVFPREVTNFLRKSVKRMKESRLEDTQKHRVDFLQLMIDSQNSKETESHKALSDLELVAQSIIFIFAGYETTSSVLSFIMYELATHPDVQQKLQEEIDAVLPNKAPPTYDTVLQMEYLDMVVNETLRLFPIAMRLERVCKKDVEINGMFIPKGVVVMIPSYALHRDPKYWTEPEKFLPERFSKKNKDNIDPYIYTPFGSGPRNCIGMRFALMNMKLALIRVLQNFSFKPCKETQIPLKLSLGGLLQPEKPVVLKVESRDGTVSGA
Experimental Protocol: IC50 against CYP3A4 by inhibition of testosterone metabolism in human liver microsomes
Type: biochemical
Test Conditions: 0.1 mg/mL human liver microsomes, 25 μM testosterone, 1 mM NADPH, 6-β-OH-testosterone production, eight minutes; read-out: IC50, μM (HLM, testosterone)
Experimental: 2. Determination of IC50 Against CYP3A4 by Measurement of Inhibition of Testosterone Metabolism This assay was performed using a standard 96 well plate design. […] Quantitation of metabolite peak area ratio against an internal standard is determined by LC-MS/MS analysis. The production of 6-β-OH-testosterone from testosterone metabolism is determined after incubation for eight minutes by comparison to a standard curve generated for the metabolite […]
hey, just use MET if measured IC50 is less than 0.04 µM, otherwise NOT MET

Solved cases (5 shown):
{"columns": ["Cpd Smiles", "System Name", "Class Name"],
 "data": [
  ["CCc1nc(CNC(=O)Cn2nc(-c3ccncc3)cc2Cc2ccc(F)cc2)no1", "CYP3A4 (Homo sapiens)", "NOT MET"],
  ["CC(=O)NC(C)(C)CNC(=O)Cn1nc(-c2ccncc2)cc1Cc1ccc(F)cc1", "CYP3A4 (Homo sapiens)", "MET"],
  ["CS(=O)(=O)NC1CN(C(=O)Cn2nc(-c3ccncc3)cc2Cc2ccc(F)cc2)C1", "CYP3A4 (Homo sapiens)", "MET"],
  ["O=C(Cn1nc(-c2ccncc2)cc1Cc1ccc(F)cc1)N1CCC(N2CCOC2=O)CC1", "CYP3A4 (Homo sapiens)", "MET"],
  ["O=C(Cn1nc(-c2ccncc2)cc1Cc1ccc(F)cc1)N[C@H]1CC[C@@H](O)CC1", "CYP3A4 (Homo sapiens)", "MET"]
]}

From here, focus on the item given below.
## Task Problem: For the molecule Cc1c(CNC(=O)Cn2nc(-c3ccncc3)cc2Cc2ccc(F)cc2)cnn1C , is IC50 under 0.04 µM?
## Result MET
